test system: SKBR3 (PI3Kα-Wild Type) cell line; assay: HTRF phospho-AKT(S473) cell assay in SKBR3 cells; format: cell-based, human; details: Homo sapiens, SK-BR-3; HTRF phospho-AKT(S473), SKBR3 (PI3Kα-Wild Type) cells, 2 hours compound incubation, PDGF-BB stimulated
pIC50: −log10 of the molar value.

{"Molecule": "Cc1cc([C@@H](C)Nc2ccc(Cl)nc2C(=O)NS(C)(=O)=O)c2nc(-c3ccc4c(c3)CN(C)C4=O)n(C)c(=O)c2c1", "pIC50": "5.30 to 6.00"}
{"Molecule": "[2H]C([2H])([2H])n1ccc([C@H]2[C@@H]3CN(c4nc5c([C@@H](C)Nc6ccc(Cl)nc6C(=O)NS(C)(=O)=O)cc(C)cc5c(=O)n4C)C[C@@H]32)n1", "pIC50": "5.30 to 6.00"}
{"Molecule": "Cc1cc([C@@H](C)Nc2ccc(Cl)nc2C(=O)NS(C)(=O)=O)c2nc(-c3ccc4nn(C5CC5)cc4c3)n(C)c(=O)c2c1", "pIC50": "5.30 to 6.00"}
{"Molecule": "Cc1cc([C@@H](C)Nc2ccc(Cl)nc2C(=O)NS(C)(=O)=O)c2nc(N3Cc4cn(-c5ncccc5C)nc4C3)n(C)c(=O)c2c1", "pIC50": "≤ 5.30"}
{"Molecule": "Cc1cc([C@@H](C)Nc2ccc(Cl)nc2C(=O)NS(C)(=O)=O)c2nc(N3CCC(n4ccccc4=O)CC3)n(C)c(=O)c2c1", "pIC50": "≤ 5.30"}
{"Molecule": "Cc1cc([C@@H](C)Nc2ccc(Cl)nc2C(=O)NS(C)(=O)=O)c2nc(N3CC[C@H](Oc4ccc(F)cc4)C3)n(C)c(=O)c2c1 (relative stereo)", "pIC50": "≤ 5.30"}

---

system: SKBR3 (PI3Kα-Wild Type) cell line; assay: HTRF phospho-AKT(S473) cell assay in SKBR3 cells; format: cell-based, human; settings: Homo sapiens, SK-BR-3; HTRF phospho-AKT(S473), SKBR3 (PI3Kα-Wild Type) cells, 2 hours compound incubation, PDGF-BB stimulated
pIC50: −log10 of the molar value.
Measured Attribute: pIC50

{"Compound": "COc1cc(O[C@H]2CCN(c3nc4c([C@@H](C)Nc5ccc(Cl)nc5C(=O)NS(C)(=O)=O)cc(C)cc4c(=O)n3C)C2)c(F)cn1 [Compound 611]", "Meas Value": "≤ 5.30"}
{"Compound": "Cc1cc([C@@H](C)Nc2ccc(Cl)nc2C(=O)NS(C)(=O)=O)c2nc(N3C[C@@H]4[C@H](C3)[C@H]4n3cc(C(F)(F)F)cn3)n(C)c(=O)c2c1 [Compound 741]", "Meas Value": "≤ 5.30"}
{"Compound": "Cc1cc([C@@H](C)Nc2ccc(Cl)nc2C(=O)NS(C)(=O)=O)c2nc(N3CCC4(CCc5c[nH]nc54)CC3)n(C)c(=O)c2c1 [Compound 682]", "Meas Value": "≤ 5.30"}
{"Compound": "Cc1cc([C@@H](C)Nc2ccc(Cl)nc2C(=O)NS(C)(=O)=O)c2nc(N3CCC[C@H](c4ccn(C(F)F)n4)C3)n(C)c(=O)c2c1 (relative stereo) [Compound 770]", "Meas Value": "≤ 5.30"}
{"Compound": "COc1cc(C2CCN(c3nc4c([C@@H](C)Nc5ccc(Cl)nc5C(=O)NS(C)(=O)=O)cc(C)cc4c(=O)n3C)CC2)nn1C [Compound 704]", "Meas Value": "≤ 5.30"}
{"Compound": "Cc1cc([C@@H](C)Nc2ccc(Cl)nc2C(=O)NS(C)(=O)=O)c2nc(N3C[C@@H]4C[C@H]3CN4c3ccc(F)cn3)n(C)c(=O)c2c1 [Compound 623]", "Meas Value": "≤ 5.30"}
{"Compound": "Cc1cc([C@@H](C)Nc2ccc(Cl)nc2C(=O)NS(C)(=O)=O)c2nc(N3CCC(c4cc5n(n4)CCO5)CC3)n(C)c(=O)c2c1 [Compound 556]", "Meas Value": "5.30 to 6.00"}
{"Compound": "Cc1cc([C@@H](C)Nc2ccc(Cl)nc2C(=O)NS(C)(=O)=O)c2nc(N3CCC4(CCOCC4)CC3)n(C)c(=O)c2c1 [Compound 690]", "Meas Value": "5.30 to 6.00"}
{"Compound": "Cc1cc([C@@H](C)Nc2ccc(Cl)nc2C(=O)NS(C)(=O)=O)c2nc(N3CCC(c4ncc(F)cn4)CC3)n(C)c(=O)c2c1 [Compound 486]", "Meas Value": "5.30 to 6.00"}
{"Compound": "Cc1cc([C@@H](C)Nc2ccc(Cl)nc2C(=O)NS(C)(=O)=O)c2nc(-c3ccc4nn(CCO)cc4c3)n(C)c(=O)c2c1 [Compound 797]", "Meas Value": "5.30 to 6.00"}
{"Compound": "Cc1cc([C@@H](C)Nc2ccc(Cl)nc2C(=O)NS(C)(=O)=O)c2nc(N3CCC(c4cc(C5CC5)[nH]n4)CC3)n(C)c(=O)c2c1 [Compound 511]", "Meas Value": "≤ 5.30"}
{"Compound": "Cc1cc([C@@H](C)Nc2ccc(Cl)nc2C(=O)NS(C)(=O)=O)c2nc(N3CCC(c4cc5ccccn5n4)CC3)n(C)c(=O)c2c1 [Compound 692]", "Meas Value": "≤ 5.30"}
{"Compound": "Cc1cc([C@@H](C)Nc2ccc(Cl)nc2C(=O)NS(C)(=O)=O)c2nc(N3CCC[C@H](c4cnc(C)c(C#N)c4)C3)n(C)c(=O)c2c1 (relative stereo) [Compound 615]", "Meas Value": "5.30 to 6.00"}
{"Compound": "Cc1cc([C@@H](C)Nc2ccc(Cl)nc2C(=O)NS(C)(=O)=O)c2nc([C@H]3[C@@H]4CN(c5ncc(F)cn5)C[C@@H]43)n(C)c(=O)c2c1 [Compound 827]", "Meas Value": "≤ 5.30"}
{"Compound": "Cc1cc([C@@H](C)Nc2ccc(Cl)nc2C(=O)NS(C)(=O)=O)c2nc(N3CCO[C@H](c4ccccc4)C3)n(C)c(=O)c2c1 [Compound 689]", "Meas Value": "5.30 to 6.00"}
{"Compound": "Cc1cc([C@@H](C)Nc2ccc(Cl)nc2C(=O)NS(C)(=O)=O)c2nc(-c3cc(F)c4cn(C)nc4c3)n(C)c(=O)c2c1 [Compound 824]", "Meas Value": "5.30 to 6.00"}
{"Compound": "Cc1cc([C@@H](C)Nc2ccc(Cl)nc2C(=O)NS(C)(=O)=O)c2nc(N3C[C@@H]4[C@H](C3)[C@H]4c3ncn(C(C)C)n3)n(C)c(=O)c2c1 [Compound 551]", "Meas Value": "≤ 5.30"}
{"Compound": "Cc1cc([C@@H](C)Nc2ccc(Cl)nc2C(=O)NS(C)(=O)=O)c2nc(N3C[C@@H]4[C@H](C3)[C@H]4c3cc4n(n3)CCC4)n(C)c(=O)c2c1 [Compound 477]", "Meas Value": "5.30 to 6.00"}
{"Compound": "Cc1cnc([C@H]2CCCN(c3nc4c([C@@H](C)Nc5ccc(Cl)nc5C(=O)NS(C)(=O)=O)cc(C)cc4c(=O)n3C)C2)nc1 (relative stereo) [Compound 621]", "Meas Value": "≤ 5.30"}
{"Compound": "Cc1cc([C@@H](C)Nc2ccc(Cl)nc2C(=O)NS(C)(=O)=O)c2nc(N3C[C@@H]4[C@H](C3)[C@H]4c3ccc(C)nn3)n(C)c(=O)c2c1 [Compound 441]", "Meas Value": "5.30 to 6.00"}
{"Compound": "CCn1c(-c2ccc3nn(C)cc3c2)nc2c([C@@H](C)Nc3ccc(Cl)nc3C(=O)NS(C)(=O)=O)cc(C)cc2c1=O [Compound 812]", "Meas Value": "5.30 to 6.00"}
{"Compound": "[2H]C([2H])([2H])n1ncc(F)c1C1CCN(c2nc3c([C@@H](C)Nc4ccc(Cl)nc4C(=O)NS(C)(=O)=O)cc(C)cc3c(=O)n2C)CC1 [Compound 457]", "Meas Value": "≤ 5.30"}
{"Compound": "COc1ncc(N2CCN(c3nc4c([C@@H](C)Nc5ccc(Cl)nc5C(=O)NS(C)(=O)=O)cc(C)cc4c(=O)n3C)CC2)cn1 [Compound 555]", "Meas Value": "5.30 to 6.00"}
